Just for reference, ChEMBL document CHEMBL5376003 is where these values come from.

- System: HCT-116
- MEASUREMENT_NOTES: Induction of apoptosis in human HCT-116 cells assessed as downregulation of NUDT1 gene expression at 10 to 500 nM incubated for 6 to 48 hrs by RNA analysis
- Type: functional, cell-based
- PROTOCOL_CONDITIONS: dose 10-500 nM, time 6-48 hrs
Activity calls are given as the source filed them. The calls are words filed in the database; no cut-off is given here.

[
  {
    "RECORD_SMILES": "CC[C@@]1(O)C(=O)OCc2c1cc1n(c2=O)Cc2c-1nc1cc3c(cc1c2-c1ccc(OC)cc1)OCO3",
    "TARGET_UNDER_TEST": "HCT-116",
    "Activity": "Active"
  },
  {
    "RECORD_SMILES": "CCc1ccc(-c2c3c(nc4cc5c(cc24)OCO5)-c2cc4c(c(=O)n2C3)COC(=O)[C@]4(O)CC)cc1",
    "TARGET_UNDER_TEST": "HCT-116",
    "Activity": "Active"
  },
  {
    "RECORD_SMILES": "CC[C@@]1(O)C(=O)OCc2c1cc1n(c2=O)Cc2c-1nc1cc3c(cc1c2-c1cc(OC)cc(OC)c1)OCO3",
    "TARGET_UNDER_TEST": "HCT-116",
    "Activity": "Active"
  },
  {
    "RECORD_SMILES": "CC[C@@]1(O)C(=O)OCc2c1cc1n(c2=O)Cc2cc3cc4c(cc3nc2-1)OCO4",
    "TARGET_UNDER_TEST": "HCT-116",
    "Activity": "Active"
  }
]

* * *

- Test system: MCF7
- MEASUREMENT_NOTES: Growth inhibition of human MCF7 cells incubated for 48 hrs by MTT reagent based ELISA reader analysis
- Assay type: functional, cell-based
- PROTOCOL_CONDITIONS: MCF7, 48 h
pIC50: −log10 of the molar value.
This section presents molecules with their documented pIC50 values.

[
  {
    "RECORD_SMILES": "CC[C@@]1(O)C(=O)OCc2c1cc1n(c2=O)Cc2cc3cc4c(cc3nc2-1)OCO4",
    "QUALIFIER_SIGN": "=",
    "pIC50": 7.49
  },
  {
    "RECORD_SMILES": "CC[C@@]1(O)C(=O)OCc2c1cc1n(c2=O)Cc2cc3c(-c4ccc(C(C)(C)C)cc4)c4c(cc3nc2-1)OCO4",
    "QUALIFIER_SIGN": "<",
    "pIC50": 6.00
  },
  {
    "RECORD_SMILES": "CC[C@@]1(O)C(=O)OCc2c1cc1n(c2=O)Cc2c-1nc1cc3c(cc1c2-c1ccc(C)c(C)c1)OCO3",
    "QUALIFIER_SIGN": "=",
    "pIC50": 7.34
  },
  {
    "RECORD_SMILES": "CC[C@@]1(O)C(=O)OCc2c1cc1n(c2=O)Cc2cc3c(-c4cccc(OC)c4)c4c(cc3nc2-1)OCO4",
    "QUALIFIER_SIGN": "<",
    "pIC50": 6.00
  },
  {
    "RECORD_SMILES": "CCOc1ccc(-c2c3c(nc4cc5c(cc24)OCO5)-c2cc4c(c(=O)n2C3)COC(=O)[C@]4(O)CC)cc1",
    "QUALIFIER_SIGN": "=",
    "pIC50": 7.19
  },
  {
    "RECORD_SMILES": "CCc1ccc(-c2c3c(nc4cc5c(cc24)OCO5)-c2cc4c(c(=O)n2C3)COC(=O)[C@]4(O)CC)cc1",
    "QUALIFIER_SIGN": "=",
    "pIC50": 7.32
  },
  {
    "RECORD_SMILES": "CC[C@@]1(O)C(=O)OCc2c1cc1n(c2=O)Cc2cc3c(-c4ccc(C(C)C)cc4)c4c(cc3nc2-1)OCO4",
    "QUALIFIER_SIGN": "=",
    "pIC50": 6.10
  },
  {
    "RECORD_SMILES": "CC[C@@]1(O)C(=O)OCc2c1cc1n(c2=O)Cc2cc3c(-c4cccc(C)c4)c4c(cc3nc2-1)OCO4",
    "QUALIFIER_SIGN": "=",
    "pIC50": 6.88
  },
  {
    "RECORD_SMILES": "CC[C@@]1(O)C(=O)OCc2c1cc1n(c2=O)Cc2c-1nc1cc3c(cc1c2-c1cc(OC)cc(OC)c1)OCO3",
    "QUALIFIER_SIGN": ">",
    "pIC50": 8.19
  },
  {
    "RECORD_SMILES": "CC[C@@]1(O)C(=O)OCc2c1cc1n(c2=O)Cc2c-1nc1cc3c(cc1c2-c1ccc2c(c1)OCO2)OCO3",
    "QUALIFIER_SIGN": "=",
    "pIC50": 7.45
  },
  {
    "RECORD_SMILES": "CC[C@@]1(O)C(=O)OCc2c1cc1n(c2=O)Cc2cc3c(-c4ccc5c(c4)OCO5)c4c(cc3nc2-1)OCO4",
    "QUALIFIER_SIGN": "=",
    "pIC50": 7.49
  },
  {
    "RECORD_SMILES": "CC[C@@]1(O)C(=O)OCc2c1cc1n(c2=O)Cc2cc3c(-c4ccc([Si](C)(C)C)cc4)c4c(cc3nc2-1)OCO4",
    "QUALIFIER_SIGN": "=",
    "pIC50": 6.98
  },
  {
    "RECORD_SMILES": "CC[C@@]1(O)C(=O)OCc2c1cc1n(c2=O)Cc2cc3c(-c4ccc(SC)cc4)c4c(cc3nc2-1)OCO4",
    "QUALIFIER_SIGN": "=",
    "pIC50": 6.80
  },
  {
    "RECORD_SMILES": "CCCCOc1ccc(-c2c3c(nc4cc5c(cc24)OCO5)-c2cc4c(c(=O)n2C3)COC(=O)[C@]4(O)CC)cc1",
    "QUALIFIER_SIGN": "<",
    "pIC50": 6.00
  },
  {
    "RECORD_SMILES": "CC[C@@]1(O)C(=O)OCc2c1cc1n(c2=O)Cc2c-1nc1cc3c(cc1c2-c1cccc(SC)c1)OCO3",
    "QUALIFIER_SIGN": "=",
    "pIC50": 7.46
  },
  {
    "RECORD_SMILES": "CCCc1ccc(-c2c3c(cc4nc5c(cc24)Cn2c-5cc4c(c2=O)COC(=O)[C@]4(O)CC)OCO3)cc1",
    "QUALIFIER_SIGN": "<",
    "pIC50": 6.00
  },
  {
    "RECORD_SMILES": "CC[C@@]1(O)C(=O)OCc2c1cc1n(c2=O)Cc2c-1nc1cc3c(cc1c2-c1cc(OC)c(OC)c(OC)c1)OCO3",
    "QUALIFIER_SIGN": "=",
    "pIC50": 7.00
  },
  {
    "RECORD_SMILES": "CCCCc1ccc(-c2c3c(nc4cc5c(cc24)OCO5)-c2cc4c(c(=O)n2C3)COC(=O)[C@]4(O)CC)cc1",
    "QUALIFIER_SIGN": "=",
    "pIC50": 7.22
  },
  {
    "RECORD_SMILES": "CC[C@@]1(O)C(=O)OCc2c1cc1n(c2=O)Cc2cc3c(-c4cc(OC)cc(OC)c4)c4c(cc3nc2-1)OCO4",
    "QUALIFIER_SIGN": "=",
    "pIC50": 7.53
  },
  {
    "RECORD_SMILES": "CCOc1cccc(-c2c3c(nc4cc5c(cc24)OCO5)-c2cc4c(c(=O)n2C3)COC(=O)[C@]4(O)CC)c1",
    "QUALIFIER_SIGN": "=",
    "pIC50": 7.32
  },
  {
    "RECORD_SMILES": "CC[C@@]1(O)C(=O)OCc2c1cc1n(c2=O)Cc2c-1nc1cc3c(cc1c2-c1cc(C)cc(C)c1)OCO3",
    "QUALIFIER_SIGN": "=",
    "pIC50": 7.06
  },
  {
    "RECORD_SMILES": "CCc1ccc(-c2c3c(cc4nc5c(cc24)Cn2c-5cc4c(c2=O)COC(=O)[C@]4(O)CC)OCO3)cc1",
    "QUALIFIER_SIGN": "<",
    "pIC50": 6.00
  },
  {
    "RECORD_SMILES": "CCCc1ccc(-c2c3c(nc4cc5c(cc24)OCO5)-c2cc4c(c(=O)n2C3)COC(=O)[C@]4(O)CC)cc1",
    "QUALIFIER_SIGN": "=",
    "pIC50": 7.19
  },
  {
    "RECORD_SMILES": "CC[C@@]1(O)C(=O)OCc2c1cc1n(c2=O)Cc2c-1nc1cc3c(cc1c2-c1ccc(OC(C)C)cc1)OCO3",
    "QUALIFIER_SIGN": "=",
    "pIC50": 7.28
  },
  {
    "RECORD_SMILES": "CC[C@@]1(O)C(=O)OCc2c1cc1n(c2=O)Cc2c-1nc1cc3c(cc1c2-c1ccc(C(F)(F)F)cc1)OCO3",
    "QUALIFIER_SIGN": "=",
    "pIC50": 7.33
  },
  {
    "RECORD_SMILES": "CCCOc1ccc(-c2c3c(nc4cc5c(cc24)OCO5)-c2cc4c(c(=O)n2C3)COC(=O)[C@]4(O)CC)cc1",
    "QUALIFIER_SIGN": "=",
    "pIC50": 7.28
  },
  {
    "RECORD_SMILES": "CC[C@@]1(O)C(=O)OCc2c1cc1n(c2=O)Cc2c-1nc1cc3c(cc1c2-c1ccc(C(C)(C)C)cc1)OCO3",
    "QUALIFIER_SIGN": "=",
    "pIC50": 6.80
  },
  {
    "RECORD_SMILES": "CCCCc1ccc(-c2c3c(cc4nc5c(cc24)Cn2c-5cc4c(c2=O)COC(=O)[C@]4(O)CC)OCO3)cc1",
    "QUALIFIER_SIGN": "<",
    "pIC50": 6.00
  },
  {
    "RECORD_SMILES": "CC[C@@]1(O)C(=O)OCc2c1cc1n(c2=O)Cc2c-1nc1cc3c(cc1c2-c1cccc(OC)c1)OCO3",
    "QUALIFIER_SIGN": "=",
    "pIC50": 7.02
  },
  {
    "RECORD_SMILES": "CC[C@@]1(O)C(=O)OCc2c1cc1n(c2=O)Cc2cc3c(-c4cc(OC)c(OC)c(OC)c4)c4c(cc3nc2-1)OCO4",
    "QUALIFIER_SIGN": "=",
    "pIC50": 6.12
  },
  {
    "RECORD_SMILES": "CC[C@@]1(O)C(=O)OCc2c1cc1n(c2=O)Cc2cc3c(-c4cc(C)cc(C)c4)c4c(cc3nc2-1)OCO4",
    "QUALIFIER_SIGN": "=",
    "pIC50": 6.80
  }
]
